Source of measurements: paper PMC7909954

- System: MOR (Homo sapiens, UniProt P35372)
- Sequence (P35372 whole entry): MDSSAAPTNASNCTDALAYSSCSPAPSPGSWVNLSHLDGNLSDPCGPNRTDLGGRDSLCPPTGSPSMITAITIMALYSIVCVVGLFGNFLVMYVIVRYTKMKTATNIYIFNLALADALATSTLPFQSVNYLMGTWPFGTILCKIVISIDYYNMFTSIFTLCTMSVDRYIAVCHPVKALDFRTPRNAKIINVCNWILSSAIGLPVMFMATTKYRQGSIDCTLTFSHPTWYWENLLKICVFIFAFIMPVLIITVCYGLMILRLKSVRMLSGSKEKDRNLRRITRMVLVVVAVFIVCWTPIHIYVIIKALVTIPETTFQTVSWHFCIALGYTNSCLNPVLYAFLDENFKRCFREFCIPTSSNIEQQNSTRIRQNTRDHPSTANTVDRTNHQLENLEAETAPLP
- Assay details: cell-based
- Test context: HTLA, read-out: Emax% arrestin recruitment (Tango) hMOR
Metric: Emax

O=C(N[C@@H]1CCC2C3Cc4ccc(O)c5c4[C@@]2(CCN3CC2CC2)C1O5)c1cccc(I)c1 (some centres unmarked) | 53%
O=C(NC1C=CC2C3Cc4ccc(O)c5c4C2(CCN3CC2CC2)C1O5)c1cccc(I)c1 (centres unmarked) | 90%
CO[C@@]12CC[C@@H](NC(=O)c3cccc(I)c3)C3Oc4c(O)ccc5c4[C@@]31CCN(CC1CC1)C2C5 (some centres unmarked) | 21%
O=C(NC1CCC2(O)C3Cc4ccc(O)c5c4C2(CCN3CC2CC2)C1O5)c1cccc(I)c1 (centres unmarked) | 29%

[in] // Emax lookup, key: "O=C(N[C@@H]1CC[C@@]2(O)C3Cc4ccc(O)cc4[C@@]2(CCN3CC2CC2)C1)c1cccc(I)c1"
[out] 27%

---

- System: KOR (Homo sapiens)
- Assay details: cell-based
- Test context: HTLA, read-out: Emax% arrestin recruitment (Tango) hKOR
For each entry below, report its Emax value.
Numbers only, in %.

Record excerpt, results attached:
N=C(N)NCc1cccc(C(=O)N[C@@H]2CCC3C4Cc5ccc(O)c6c5[C@@]3(CCN4CC3CC3)C2O6)c1 (stereo partly drawn) | 48
O=C(N[C@@H]1CC[C@@]2(O)C3Cc4ccc(O)cc4[C@@]2(CCN3CC2CC2)C1)c1cccc(I)c1 | 107
O=C(N[C@@H]1CC[C@H]2[C@H]3Cc4ccc(O)c5c4[C@@]2(CCN3CC2CC2)[C@H]1O5)c1cccc(CO)c1 | 63

// for each compound below, give its Emax
1. NCc1ccc(C(=O)N[C@@H]2CC[C@H]3[C@H]4Cc5ccc(O)c6c5[C@@]3(CCN4CC3CC3)[C@H]2O6)cc1
2. NCc1cccc(C(=O)N[C@@H]2CCC3C4Cc5ccc(O)c6c5[C@@]3(CCN4CC3CC3)C2O6)c1 (stereo partly drawn)
3. O=C(NC1C=CC2C3Cc4ccc(O)c5c4C2(CCN3CC2CC2)C1O5)c1cccc(I)c1 (stereo not drawn)
4. CO[C@@]12CC[C@@H](NC(=O)c3cccc(I)c3)C3Oc4c(O)ccc5c4[C@@]31CCN(CC1CC1)C2C5 (stereo partly drawn)
5. O=C(N[C@@H]1CCC2C3Cc4ccc(O)c5c4[C@@]2(CCN3CC2CC2)C1O5)c1cccc(I)c1 (stereo partly drawn)
6. O=C(NC1CCC2(O)C3Cc4ccc(O)c5c4C2(CCN3CC2CC2)C1O5)c1cccc(I)c1 (stereo not drawn)

[out]
67
37
117
75
101
109

---

- System: KOR (Homo sapiens)
- Test context: transduction coefficient log(T/KA)
Is LogRA Tango hKOR at least 10? Then 1. If not, 0.

CO[C@@]12CC[C@@H](NC(=O)c3cccc(I)c3)C3Oc4c(O)ccc5c4[C@@]31CCN(CC1CC1)C2C5 (stereo partly drawn) | 0

[in] Has N=C(N)NCc1cccc(C(=O)N[C@@H]2CCC3C4Cc5ccc(O)c6c5[C@@]3(CCN4CC3CC3)C2O6)c1 (stereo partly drawn) a recorded LogRA Tango hKOR greater than or equal to 10?
[out] 0

[in] Quick one: "O=C(N[C@@H]1CC[C@H]2[C@H]3Cc4ccc(O)c5c4[C@@]2(CCN3CC2CC2)[C@H]1O5)c1cccc(CO)c1"
[out] 0

[in] Quick one: O=C(NC1C=CC2C3Cc4ccc(O)c5c4C2(CCN3CC2CC2)C1O5)c1cccc(I)c1 (stereo not drawn)
[out] 1

[in] Quick one: NCc1cccc(C(=O)N[C@@H]2CCC3C4Cc5ccc(O)c6c5[C@@]3(CCN4CC3CC3)C2O6)c1 (stereo partly drawn)
[out] 0

[in] Quick one: O=C(NC1CCC2(O)C3Cc4ccc(O)c5c4C2(CCN3CC2CC2)C1O5)c1cccc(I)c1 (stereo not drawn)
[out] 1

---

Here we list compounds with their recorded Log RA cAMP hMOR when tested on MOR (Homo sapiens, UniProt P35372).
Give bare numbers.

Record excerpt, results attached:
O=C(NC1C=CC2C3Cc4ccc(O)c5c4C2(CCN3CC2CC2)C1O5)c1cccc(I)c1 (centres unmarked) | 10.12
O=C(N[C@@H]1CCC2C3Cc4ccc(O)c5c4[C@@]2(CCN3CC2CC2)C1O5)c1cccc(I)c1 (some centres unmarked) | 9.99
CO[C@@]12CC[C@@H](NC(=O)c3cccc(I)c3)C3Oc4c(O)ccc5c4[C@@]31CCN(CC1CC1)C2C5 (some centres unmarked) | 9.79

// for each compound below, give its Log RA cAMP hMOR
1. O=C(N[C@@H]1CC[C@@]2(O)C3Cc4ccc(O)cc4[C@@]2(CCN3CC2CC2)C1)c1cccc(I)c1
2. O=C(NC1CCC2(O)C3Cc4ccc(O)c5c4C2(CCN3CC2CC2)C1O5)c1cccc(I)c1 (centres unmarked)

[out]
9.84
9.99

---

- System: SERT (Homo sapiens, UniProt P31645)
- Sequence (P31645 whole entry, species assumed): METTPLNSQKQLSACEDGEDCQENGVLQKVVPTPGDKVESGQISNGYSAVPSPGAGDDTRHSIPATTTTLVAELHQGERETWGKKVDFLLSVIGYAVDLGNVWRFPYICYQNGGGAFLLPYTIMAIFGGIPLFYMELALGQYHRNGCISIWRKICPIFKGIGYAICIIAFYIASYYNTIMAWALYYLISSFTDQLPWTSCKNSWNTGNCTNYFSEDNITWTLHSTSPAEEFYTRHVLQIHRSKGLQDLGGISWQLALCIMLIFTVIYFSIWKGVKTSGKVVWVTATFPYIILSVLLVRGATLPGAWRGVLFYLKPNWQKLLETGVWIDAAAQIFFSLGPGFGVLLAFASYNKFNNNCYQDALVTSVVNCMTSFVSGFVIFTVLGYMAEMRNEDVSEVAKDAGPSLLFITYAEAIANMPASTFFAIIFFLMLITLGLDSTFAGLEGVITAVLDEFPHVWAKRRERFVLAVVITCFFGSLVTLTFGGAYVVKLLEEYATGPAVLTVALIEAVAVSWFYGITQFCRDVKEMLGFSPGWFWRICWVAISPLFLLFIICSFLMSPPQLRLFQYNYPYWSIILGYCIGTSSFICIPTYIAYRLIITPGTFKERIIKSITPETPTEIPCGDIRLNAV
Metric: pKi
Answers are plain numbers, as −log10 of the molar value.

[in] // pKi lookup, key: NCc1cccc(C(=O)N[C@@H]2CCC3C4Cc5ccc(O)c6c5[C@@]3(CCN4CC3CC3)C2O6)c1 (stereo partly shown)
[out] 6.45

---

- System: mKOR (Mus musculus)
- Sequence (P33534 whole entry): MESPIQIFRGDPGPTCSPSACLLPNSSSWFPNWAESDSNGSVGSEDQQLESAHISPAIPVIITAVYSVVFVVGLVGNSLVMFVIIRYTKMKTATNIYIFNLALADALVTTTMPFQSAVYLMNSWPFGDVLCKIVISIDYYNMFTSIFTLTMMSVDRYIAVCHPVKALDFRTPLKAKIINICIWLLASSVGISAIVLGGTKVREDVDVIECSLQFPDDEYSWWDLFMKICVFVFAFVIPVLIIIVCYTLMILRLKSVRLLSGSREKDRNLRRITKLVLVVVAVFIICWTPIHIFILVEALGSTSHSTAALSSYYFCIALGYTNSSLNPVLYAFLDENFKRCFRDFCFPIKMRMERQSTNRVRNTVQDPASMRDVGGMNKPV
- Assay details: biochemical
- Test context: read-out: Emax mKOR [35S]GTPγS
Metric: Emax (%)
One number for each entry, in %.

N=C(N)NCc1cccc(C(=O)N[C@@H]2CCC3C4Cc5ccc(O)c6c5[C@@]3(CCN4CC3CC3)C2O6)c1 (stereo partly drawn) [MP1208] | 43
O=C(NC1CCC2(O)C3Cc4ccc(O)c5c4C2(CCN3CC2CC2)C1O5)c1cccc(I)c1 (stereo not drawn) [IBNtxA] | 102

# next compound below
[in] // Emax lookup, key: O=C(N[C@@H]1CCC2C3Cc4ccc(O)c5c4[C@@]2(CCN3CC2CC2)C1O5)c1cccc(I)c1 (stereo partly drawn) [MP1202]
[out] 94

---

- System: KOR (Homo sapiens, UniProt P41145)
- Sequence (P41145 whole entry): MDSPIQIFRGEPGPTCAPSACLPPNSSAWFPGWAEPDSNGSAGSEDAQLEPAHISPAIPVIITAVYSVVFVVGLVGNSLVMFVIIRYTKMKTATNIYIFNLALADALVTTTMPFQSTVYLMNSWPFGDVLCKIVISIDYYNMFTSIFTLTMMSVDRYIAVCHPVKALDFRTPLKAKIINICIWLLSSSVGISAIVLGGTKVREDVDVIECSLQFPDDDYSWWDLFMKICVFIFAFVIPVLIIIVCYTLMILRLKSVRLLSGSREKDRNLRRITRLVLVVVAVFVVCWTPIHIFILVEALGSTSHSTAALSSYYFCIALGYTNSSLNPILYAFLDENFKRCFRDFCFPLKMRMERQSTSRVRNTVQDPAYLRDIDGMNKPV
- Test context: transduction coefficient log(T/KA)
For each entry below, report its Log RA cAMP hKOR value.
Answers are plain numbers.

Record excerpt, results attached:
O=C(NC1CCC2(O)C3Cc4ccc(O)c5c4C2(CCN3CC2CC2)C1O5)c1cccc(I)c1 (stereo not drawn) [IBNtxA] | 11.59
O=C(NC1C=CC2C3Cc4ccc(O)c5c4C2(CCN3CC2CC2)C1O5)c1cccc(I)c1 (stereo not drawn) [MP1104] | 11.44
O=C(N[C@@H]1CCC2C3Cc4ccc(O)c5c4[C@@]2(CCN3CC2CC2)C1O5)c1cccc(I)c1 (stereo partly drawn) [MP1202] | 11.88
O=C(N[C@@H]1CC[C@H]2[C@H]3Cc4ccc(O)c5c4[C@@]2(CCN3CC2CC2)[C@H]1O5)c1cccc(CO)c1 [MP1210] | 10.59
O=C(N[C@@H]1CC[C@@]2(O)C3Cc4ccc(O)cc4[C@@]2(CCN3CC2CC2)C1)c1cccc(I)c1 [MP1601] | 9.85

// for each compound below, give its Log RA cAMP hKOR
1. N=C(N)NCc1cccc(C(=O)N[C@@H]2CCC3C4Cc5ccc(O)c6c5[C@@]3(CCN4CC3CC3)C2O6)c1 (stereo partly drawn) [MP1208]
2. NCc1ccc(C(=O)N[C@@H]2CC[C@H]3[C@H]4Cc5ccc(O)c6c5[C@@]3(CCN4CC3CC3)[C@H]2O6)cc1 [MP1209]

[out]
1: 9.83; 2: 10.55

// for each compound below, give its Log RA cAMP hKOR
1. CO[C@@]12CC[C@@H](NC(=O)c3cccc(I)c3)C3Oc4c(O)ccc5c4[C@@]31CCN(CC1CC1)C2C5 (stereo partly drawn) [MP1305]
2. NCc1cccc(C(=O)N[C@@H]2CCC3C4Cc5ccc(O)c6c5[C@@]3(CCN4CC3CC3)C2O6)c1 (stereo partly drawn) [MP1207]

[out]
1: 9.22; 2: 9.902

---

- System: MOR (Homo sapiens, UniProt P35372)
- Assay details: cell-based
- Test context: HEK-293T, read-out: Emax% cAMP inhibition hMOR
Is Emax at least 90%? Then Met. If not, Not met.

CO[C@@]12CC[C@@H](NC(=O)c3cccc(I)c3)C3Oc4c(O)ccc5c4[C@@]31CCN(CC1CC1)C2C5 (stereo partly drawn) | Not met
O=C(NC1CCC2(O)C3Cc4ccc(O)c5c4C2(CCN3CC2CC2)C1O5)c1cccc(I)c1 (stereo not drawn) | Met
O=C(N[C@@H]1CC[C@@]2(O)C3Cc4ccc(O)cc4[C@@]2(CCN3CC2CC2)C1)c1cccc(I)c1 | Not met

Kindly review the next compound as well.
[in] Has NCc1cccc(C(=O)N[C@@H]2CCC3C4Cc5ccc(O)c6c5[C@@]3(CCN4CC3CC3)C2O6)c1 (stereo partly drawn) a recorded Emax greater than or equal to 90%?
[out] Not met
